- System: Escherichia coli TOP10
- TEST_SUMMARY: shrunken log2 fold change of peptide-encoding DNA abundance (4.5 h post-induction vs induction); higher = less antimicrobial activity (less host growth inhibition)
- RUN_PARAMETERS: time post-induction: 4.5 h; library: site-saturation at positions 5, 18, 19, 20
PARAMETER_MEASURED: shrunken log2 fold change

RRIRNRPPRLPRPRPRPHWPPRP
0.0957
RRIRQRPPRLPRPRPRPTMYPRP
-0.352
RRIRARPPRLPRPRPRPPGPPRP
0.703
RRIRKRPPRLPRPRPRPICVPRP
0.0188
RRIRSRPPRLPRPRPRPCDWPRP
0.0154
RRIRPRPPRLPRPRPRPQPTPRP
-0.0242
RRIRIRPPRLPRPRPRPTDSPRP
-0.237
RRIRKRPPRLPRPRPRPACPPRP
0.664
RRIRDRPPRLPRPRPRPWLRPRP
0.081
RRIRHRPPRLPRPRPRPQPHPRP
-0.0753
RRIRSRPPRLPRPRPRPHVWPRP
0.0587
RRIRRRPPRLPRPRPRPYPFPRP
-0.238
RRIRCRPPRLPRPRPRPKHSPRP
-0.401
RRIRMRPPRLPRPRPRPCLHPRP
-0.608
RRIRCRPPRLPRPRPRPHTQPRP
-0.55

====

- Test system: Escherichia coli TOP10
- TEST_SUMMARY: shrunken log2 fold change of peptide-encoding DNA abundance (4.5 h post-induction vs induction); higher = less antimicrobial activity (less host growth inhibition)
- RUN_PARAMETERS: time post-induction: 4.5 h; library: site-saturation at positions 5, 18, 19, 20
PARAMETER_MEASURED: shrunken log2 fold change

RRIRYRPPRLPRPRPRPMIWPRP
-0.00195
RRIRERPPRLPRPRPRPCPLPRP
-0.265
RRIRLRPPRLPRPRPRPKDMPRP
-0.0444
RRIRDRPPRLPRPRPRPELRPRP
0.621
RRIRERPPRLPRPRPRPDQHPRP
-0.165
RRIRQRPPRLPRPRPRPGECPRP
-0.0823
RRIRQRPPRLPRPRPRPMFNPRP
-0.436
RRIRIRPPRLPRPRPRPQVYPRP
0.0822
RRIRERPPRLPRPRPRPNSRPRP
-0.481
RRIRLRPPRLPRPRPRPVDRPRP
0.584
RRIRRRPPRLPRPRPRPGDGPRP
0.467
RRIRYRPPRLPRPRPRPPTVPRP
-0.146
RRIRDRPPRLPRPRPRPSGFPRP
0.029
RRIRERPPRLPRPRPRPPVGPRP
0.0345
RRIRRRPPRLPRPRPRPGFKPRP
0.0975

====

- Tested on: Escherichia coli TOP10
- TEST_SUMMARY: shrunken log2 fold change of peptide-encoding DNA abundance (4.5 h post-induction vs induction); higher = less antimicrobial activity (less host growth inhibition)
- RUN_PARAMETERS: time post-induction: 4.5 h; library: site-saturation at positions 5, 18, 19, 20
# label = bin(measured shrunken log2 fold change), where bins are LOW = under -0.2, MID = from -0.2 up to 0.08, HIGH = 0.08 and over

RRIRGRPPRLPRPRPRPHKQPRP
MID
RRIRRRPPRLPRPRPRPVEDPRP
HIGH
RRIRERPPRLPRPRPRPADAPRP
HIGH
RRIRQRPPRLPRPRPRPAQGPRP
MID
RRIRIRPPRLPRPRPRPWGGPRP
HIGH
RRIRSRPPRLPRPRPRPQKIPRP
LOW
RRIRYRPPRLPRPRPRPIVIPRP
MID
RRIRSRPPRLPRPRPRPHQVPRP
MID
RRIRARPPRLPRPRPRPYELPRP
MID
RRIRARPPRLPRPRPRPIEKPRP
HIGH
RRIRRRPPRLPRPRPRPQIHPRP
LOW
RRIRKRPPRLPRPRPRPRFFPRP
HIGH
RRIRIRPPRLPRPRPRPFLDPRP
LOW
RRIRIRPPRLPRPRPRPEIYPRP
MID
RRIRWRPPRLPRPRPRPGARPRP
HIGH
RRIRYRPPRLPRPRPRPITDPRP
MID
RRIRPRPPRLPRPRPRPWLRPRP
HIGH
RRIRFRPPRLPRPRPRPSSKPRP
LOW
RRIRARPPRLPRPRPRPSCSPRP
MID
RRIRERPPRLPRPRPRPRESPRP
LOW
RRIRHRPPRLPRPRPRPTTMPRP
LOW
RRIRMRPPRLPRPRPRPHTNPRP
MID
RRIRIRPPRLPRPRPRPKMPPRP
MID
RRIRQRPPRLPRPRPRPGDVPRP
LOW
RRIRTRPPRLPRPRPRPYCEPRP
LOW
RRIRPRPPRLPRPRPRPLYSPRP
MID
RRIRKRPPRLPRPRPRPEYDPRP
HIGH
RRIRPRPPRLPRPRPRPTCMPRP
HIGH
RRIRERPPRLPRPRPRPSWRPRP
MID
RRIRQRPPRLPRPRPRPLCPPRP
LOW
RRIRCRPPRLPRPRPRPRFVPRP
HIGH

====

- Tested on: Escherichia coli TOP10
- TEST_SUMMARY: shrunken log2 fold change of peptide-encoding DNA abundance (4.5 h post-induction vs induction); higher = less antimicrobial activity (less host growth inhibition)
- RUN_PARAMETERS: time post-induction: 4.5 h; library: site-saturation at positions 5, 18, 19, 20
Each entry gets 0 (no) if its shrunken log2 fold change stays under -0.09, and 1 (yes) if its shrunken log2 fold change is -0.09 or above.

RRIRTRPPRLPRPRPRPIEGPRP
1 (yes)
RRIRQRPPRLPRPRPRPEYQPRP
1 (yes)
RRIRYRPPRLPRPRPRPISRPRP
0 (no)
RRIRSRPPRLPRPRPRPEKAPRP
0 (no)
RRIRFRPPRLPRPRPRPYMPPRP
0 (no)
RRIRWRPPRLPRPRPRPNALPRP
1 (yes)
RRIRGRPPRLPRPRPRPKQHPRP
1 (yes)
RRIRCRPPRLPRPRPRPMCFPRP
1 (yes)
RRIRWRPPRLPRPRPRPHSLPRP
0 (no)
RRIRFRPPRLPRPRPRPDGFPRP
1 (yes)
RRIRARPPRLPRPRPRPEQEPRP
1 (yes)
RRIRMRPPRLPRPRPRPQAEPRP
1 (yes)
RRIRCRPPRLPRPRPRPYMQPRP
0 (no)
RRIRLRPPRLPRPRPRPHWGPRP
1 (yes)

====

- System: Escherichia coli TOP10;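 further: peptides expressed intracellularly from a pBAD plasmid library in pooled LB shake-flask culture, induced with 0.3% L-arabinose, DNA abundance read by NGS, three biological replicates, DESeq2 with apeglm shrinkage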
- TEST_SUMMARY: shrunken log2 fold change of peptide-encoding DNA abundance (4.5 h post-induction vs induction); higher = less antimicrobial activity (less host growth inhibition)
- RUN_PARAMETERS: time post-induction: 4.5 h; library: site-saturation at positions 5, 18, 19, 20
Below, each entry is listed with its recorded shrunken log2 fold change.
PARAMETER_MEASURED: shrunken log2 fold change

RRIRWRPPRLPRPRPRPPPFPRP
0.22
RRIRCRPPRLPRPRPRPVGKPRP
0.0374
RRIRSRPPRLPRPRPRPWDSPRP
-0.729
RRIRDRPPRLPRPRPRPMWTPRP
0.217
RRIRPRPPRLPRPRPRPSAYPRP
-0.386
RRIRGRPPRLPRPRPRPHHYPRP
-0.524
RRIRYRPPRLPRPRPRPSFLPRP
-0.994
RRIRWRPPRLPRPRPRPDQAPRP
0.11
RRIRERPPRLPRPRPRPTVWPRP
0.217
RRIRVRPPRLPRPRPRPFWLPRP
0.234
RRIRDRPPRLPRPRPRPGEPPRP
0.613
RRIRIRPPRLPRPRPRPQNAPRP
-0.297
RRIRVRPPRLPRPRPRPMGPPRP
0.24
RRIRYRPPRLPRPRPRPAHEPRP
0.241
RRIRPRPPRLPRPRPRPAVFPRP
0.373
RRIRHRPPRLPRPRPRPQFQPRP
-0.511
RRIRIRPPRLPRPRPRPPSNPRP
-0.613
RRIRKRPPRLPRPRPRPADQPRP
-0.0199
RRIRGRPPRLPRPRPRPKTGPRP
0.692
RRIRCRPPRLPRPRPRPWGAPRP
0.0457
RRIRQRPPRLPRPRPRPLDPPRP
-0.408
RRIRSRPPRLPRPRPRPDLQPRP
-0.193
RRIRWRPPRLPRPRPRPHAPPRP
0.517
RRIRTRPPRLPRPRPRPPVGPRP
1.18
RRIRFRPPRLPRPRPRPYGTPRP
-0.81
RRIRLRPPRLPRPRPRPDPVPRP
-0.0275
RRIRYRPPRLPRPRPRPNSEPRP
-0.589
RRIRFRPPRLPRPRPRPFANPRP
-0.124
RRIRKRPPRLPRPRPRPEHTPRP
-0.0305
RRIRDRPPRLPRPRPRPCDYPRP
-0.0874
RRIRVRPPRLPRPRPRPPEAPRP
-0.0358
RRIRNRPPRLPRPRPRPFAWPRP
0.0341
RRIRSRPPRLPRPRPRPSQRPRP
-0.0585
RRIRSRPPRLPRPRPRPTCGPRP
0.468
RRIRFRPPRLPRPRPRPRHSPRP
0.0584
RRIRCRPPRLPRPRPRPTICPRP
-0.142
RRIRCRPPRLPRPRPRPDCFPRP
0.182
RRIRTRPPRLPRPRPRPHILPRP
-0.00363
RRIRIRPPRLPRPRPRPPPVPRP
0.414
RRIRRRPPRLPRPRPRPKFSPRP
0.0704
RRIRHRPPRLPRPRPRPDICPRP
-0.622
RRIRNRPPRLPRPRPRPRGAPRP
0.601
RRIRIRPPRLPRPRPRPYQVPRP
-0.14
RRIRARPPRLPRPRPRPVPWPRP
0.452
RRIRWRPPRLPRPRPRPGQHPRP
-0.172
RRIRSRPPRLPRPRPRPNPIPRP
0.0127
RRIRWRPPRLPRPRPRPTPAPRP
0.584
RRIRQRPPRLPRPRPRPKVAPRP
-0.00277
RRIRGRPPRLPRPRPRPIFAPRP
0.609
RRIRCRPPRLPRPRPRPKWKPRP
0.329
RRIRDRPPRLPRPRPRPVFWPRP
0.639
RRIRFRPPRLPRPRPRPTAAPRP
0.569
RRIRNRPPRLPRPRPRPRDEPRP
-0.0923
RRIRLRPPRLPRPRPRPGRAPRP
0.469
RRIRLRPPRLPRPRPRPYYFPRP
-0.767
RRIRERPPRLPRPRPRPLPPPRP
0.124
RRIRFRPPRLPRPRPRPKFWPRP
0.265
RRIRSRPPRLPRPRPRPCQHPRP
-0.128
RRIRGRPPRLPRPRPRPCFPPRP
0.309
RRIRTRPPRLPRPRPRPTPVPRP
0.313
RRIRVRPPRLPRPRPRPSAQPRP
0.0391
RRIRERPPRLPRPRPRPIMNPRP
-1.02
RRIRVRPPRLPRPRPRPEHHPRP
-0.334
